- system.name: Heat shock factor protein 1 (Mus musculus, UniProt P38532)
- Sequence (P38532 whole entry): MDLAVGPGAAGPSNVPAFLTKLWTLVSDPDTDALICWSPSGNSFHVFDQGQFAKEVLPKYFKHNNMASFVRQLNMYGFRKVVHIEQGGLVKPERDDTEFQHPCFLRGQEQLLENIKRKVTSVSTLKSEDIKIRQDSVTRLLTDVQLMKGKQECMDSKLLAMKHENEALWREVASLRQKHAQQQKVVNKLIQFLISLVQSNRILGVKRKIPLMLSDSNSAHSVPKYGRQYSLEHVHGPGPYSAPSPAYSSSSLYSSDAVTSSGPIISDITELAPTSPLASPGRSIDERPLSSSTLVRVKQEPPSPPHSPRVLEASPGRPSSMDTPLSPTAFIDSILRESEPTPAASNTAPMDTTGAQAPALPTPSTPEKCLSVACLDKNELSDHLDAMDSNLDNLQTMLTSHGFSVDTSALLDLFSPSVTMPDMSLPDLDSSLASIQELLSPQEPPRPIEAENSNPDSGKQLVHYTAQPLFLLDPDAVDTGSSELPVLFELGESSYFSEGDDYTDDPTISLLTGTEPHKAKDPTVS
- protocol: inhibition of MG132-induced HSE-luciferase signal, confirmation, cell-based, NIH3T3, luminescence, dose retest (AID 2382);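 also: NIH3T3 fibroblasts with HSF1-driven luciferase reporter stressed by proteasome inhibitor MG132; luminescence from HSF1-driven luciferase expression after 8 hours of MG132 stress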
- Assay type: functional
Calls of active or inactive are those of the source.
readout.kind: EC50

compound=CC(=O)Nc1cc(C(=O)N(C)Cc2ccco2)ccc1Sc1ccc(C)cc1 result="> 195 µM (not active)"
compound="CCCCNC(=O)C(c1ccc(OCC(=O)OC)c(C(=O)OC)c1)N(CCc1c[nH]c2ccccc12)C(=O)CCCCCN1C(=O)NC(c2ccc(-c3ccccc3)cc2)C(C(=O)OCc2ccccc2)=C1C (centres undefined)" result="> 195 µM (not active)"
compound="Cc1cccc(C)c1NC(=O)N1C(C(=O)O)CSC1C(=O)O (centres undefined)" result="> 195 µM (not active)"
compound=O=S(=O)(Nc1ccc2c(c1)OCCO2)c1cccs1 result="2.91 µM (active)"
compound=COCCN1Cc2cccc(C(=O)Nc3ccc4c(c3)OCCO4)c2C1=O result="11.6 µM (active)"
compound=CC(=O)N(C)C1=C(O)C(=O)c2ccccc2C1=O result="> 195 µM (not active)"
compound=Cc1ccc(S(=O)(=O)N2CCN(CC(=O)N/N=C\c3ccncc3)CC2)cc1 result="> 195 µM (not active)"
compound=CSCc1nnc2n1-c1ccc(Cl)cc1C(c1ccccc1)=NC2 result="> 195 µM (not active)"
compound=O=C(c1cccc([N+](=O)[O-])c1)N1CCc2ccccc21 result="> 195 µM (not active)"
compound=COc1cc(NS(=O)(=O)c2ccc(C)cc2)c2ncccc2c1 result="24.3 µM (active)"
compound=Cc1ccc(-c2nc(NC(=O)c3nn(C)cc3[N+](=O)[O-])sc2C)cc1C result="4.28 µM (inconclusive)"
compound="CC1(C)CC(NCc2ccc3c(c2)OCO3)CCO1 (centres undefined)" result="> 195 µM (not active)"
compound=CCn1c(COc2ccc(C)cc2)nnc1SCC(=O)Nc1ccc2c(c1)OCCO2 result="> 195 µM (not active)"
compound=CCCn1c(C)cc(C(=O)COC(=O)c2cccnc2O)c1C result="0.289 µM (active)"
compound=COc1ccccc1C(O)(C(=O)N(NC(C)=O)c1ccccc1)c1ccccc1OC result="> 195 µM (not active)"
compound="CCc1cccc(CC)c1N=C(S)N1CCn2cccc2C1c1cccnc1 (centres undefined)" result="> 195 µM (not active)"
compound="CC(O/N=C\\c1ccccc1O)C(=O)Nc1ccccc1C(=O)N1CCOCC1 (centres undefined)" result="> 195 µM (not active)"
compound=CC(C)c1ccc(-c2nc3ccccc3s2)cc1 result="< 0.16 µM (active)"
compound=CC/C(=N\NS(=O)(=O)c1ccc(C)cc1)c1ccco1 result="> 195 µM (not active)"
compound=NC(=O)COC(=O)c1cc(O)nc2ccccc12 result="> 195 µM (not active)"
compound="CCN(CC)CCCNC(=O)C1CCC(CNS(=O)(=O)c2ccc(Cl)cc2)CC1 (centres undefined)" result="> 195 µM (not active)"
compound="CCOC(=O)C1=C(N)OC2=C(C(=O)CC(C)(C)C2)C1c1ccccc1OCC#N (centres undefined)" result="> 195 µM (not active)"
compound=CCCOc1ccc(CC(=O)N/N=C\c2ccc(F)cc2)cc1 result="> 195 µM (not active)"
compound="CCC(N=C(S)NCc1ccccc1)C(=O)O (centres undefined)" result="> 195 µM (not active)"

====

- system.name: UniProt:P9WMR3
- Sequence (P9WMR3 whole entry): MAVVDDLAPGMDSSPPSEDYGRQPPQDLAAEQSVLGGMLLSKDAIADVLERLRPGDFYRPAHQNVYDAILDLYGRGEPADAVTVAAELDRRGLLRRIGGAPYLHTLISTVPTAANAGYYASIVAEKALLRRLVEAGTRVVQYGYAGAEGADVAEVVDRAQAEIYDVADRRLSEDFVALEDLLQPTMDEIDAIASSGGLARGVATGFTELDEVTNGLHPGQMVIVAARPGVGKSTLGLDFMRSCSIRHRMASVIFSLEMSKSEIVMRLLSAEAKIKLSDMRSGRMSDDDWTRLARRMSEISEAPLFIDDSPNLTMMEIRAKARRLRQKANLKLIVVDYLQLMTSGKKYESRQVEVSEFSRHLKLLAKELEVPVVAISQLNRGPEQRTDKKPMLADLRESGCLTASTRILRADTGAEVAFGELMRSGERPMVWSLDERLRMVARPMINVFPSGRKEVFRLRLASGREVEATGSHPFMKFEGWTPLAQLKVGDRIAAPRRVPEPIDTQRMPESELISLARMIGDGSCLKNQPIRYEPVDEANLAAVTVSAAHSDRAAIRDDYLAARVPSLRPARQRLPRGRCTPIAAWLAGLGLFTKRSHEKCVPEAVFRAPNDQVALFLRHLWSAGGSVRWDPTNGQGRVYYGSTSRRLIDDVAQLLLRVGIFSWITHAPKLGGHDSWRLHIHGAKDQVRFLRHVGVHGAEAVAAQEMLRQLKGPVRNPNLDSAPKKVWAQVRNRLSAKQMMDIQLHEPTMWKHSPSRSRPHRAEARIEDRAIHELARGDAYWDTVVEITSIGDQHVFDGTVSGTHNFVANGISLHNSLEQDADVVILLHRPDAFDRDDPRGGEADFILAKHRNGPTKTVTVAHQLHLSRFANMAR
- protocol: DnaB intein splicing inhibitors, dose response, biochemical, cell-free fluorescence (AID 449749)
- Format: functional
Active and inactive are the calls of the source.
readout.kind: AC50

compound=COC(=O)CC1=NN(c2ccccc2)C(=O)C1 result="13.2 µM (active)"
compound="COC(=O)Cc1n[nH]c2c1C(c1ccc(O)c(OC)c1)C(C#N)=C(N)O2 (stereo not given)" result="7.51 µM (inconclusive)"
compound=O=C(COC(=O)c1ccc2c(c1[N+](=O)[O-])C(=O)c1ccccc1C2=O)NC1CC1 result="3.81 µM (active)"
compound=Cc1c(-c2nn(C)c(=O)c3ccccc23)oc2ccc(F)cc2c1=O result="3.86 µM (active)"
compound="Cc1ccc(C2C(C#N)=C(N)Oc3[nH]nc(-c4cccnc4)c32)o1 (stereo not given)" result="25.6 µM (active)"
compound="CCCc1n[nH]c2c1C(c1ccoc1)C(C#N)=C(N)O2 (stereo not given)" result="4.51 µM (active)"
compound=O=C1NC(=O)N(Cc2ccc(F)cc2)C(=O)/C1=C/NNC(=O)c1ccccc1O result="6.55 µM (active)"
compound=CCc1cc(C(=O)c2ccc(C)cc2)c(NC(=O)CCl)s1 result="3.98 µM (active)"
compound=Cc1ccc([N+](=O)[O-])cc1S(=O)(=O)N(C(=O)c1ccncc1)c1ccc2oc3c(c2c1)CCCC3 result="42 µM (active)"
compound="Cc1nn(Cc2ccccc2)c2c1C(c1ccccc1)C(C#N)=C(N)O2 (stereo not given)" result="8.53 µM (active)"

====

- system.name: Short transient receptor potential channel 4 (Mus musculus, UniProt Q9QUQ5)
- Sequence (Q9QUQ5 whole entry): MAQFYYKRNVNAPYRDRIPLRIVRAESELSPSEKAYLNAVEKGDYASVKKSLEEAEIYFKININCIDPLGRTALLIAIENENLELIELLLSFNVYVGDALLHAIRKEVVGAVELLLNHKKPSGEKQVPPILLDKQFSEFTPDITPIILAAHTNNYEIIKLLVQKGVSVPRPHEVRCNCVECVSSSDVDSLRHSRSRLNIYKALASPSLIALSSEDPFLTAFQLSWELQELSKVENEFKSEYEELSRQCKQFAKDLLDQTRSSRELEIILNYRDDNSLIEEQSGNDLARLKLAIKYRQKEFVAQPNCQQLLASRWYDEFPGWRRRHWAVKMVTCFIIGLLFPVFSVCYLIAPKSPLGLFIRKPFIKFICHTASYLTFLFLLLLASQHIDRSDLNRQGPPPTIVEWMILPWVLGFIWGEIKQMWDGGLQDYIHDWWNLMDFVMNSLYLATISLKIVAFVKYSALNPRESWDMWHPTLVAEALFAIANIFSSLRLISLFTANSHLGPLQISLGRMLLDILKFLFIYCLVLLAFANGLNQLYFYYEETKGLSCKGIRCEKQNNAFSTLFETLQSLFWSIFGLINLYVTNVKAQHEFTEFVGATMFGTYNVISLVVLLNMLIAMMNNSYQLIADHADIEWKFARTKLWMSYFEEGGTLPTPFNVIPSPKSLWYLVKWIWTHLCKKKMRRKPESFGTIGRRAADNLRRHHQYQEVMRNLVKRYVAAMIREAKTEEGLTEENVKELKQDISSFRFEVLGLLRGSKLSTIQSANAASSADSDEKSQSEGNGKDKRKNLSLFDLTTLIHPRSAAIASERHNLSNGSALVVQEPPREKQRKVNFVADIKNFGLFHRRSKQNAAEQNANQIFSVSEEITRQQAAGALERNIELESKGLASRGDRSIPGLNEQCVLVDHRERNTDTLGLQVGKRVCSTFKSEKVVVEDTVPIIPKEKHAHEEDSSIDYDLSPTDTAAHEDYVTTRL
- protocol: mouse TRPC4 channel activators, dose response, cell-based, HEK293 TRPC4/mu-opioid, Fluo-4 calcium (AID 434937)
- Assay type: functional
Calls of active or inactive are those of the source.
readout.kind: EC50

smiles_text=Cc1cc(-c2ccc(C)c(S(=O)(=O)NCCCN(Cc3ccccc3)C(C)C)c2)on1 readout_kind=EC50 result="1.33 µM (active)"
smiles_text=CN(C)c1ccc(/C=C/C(=O)c2c(O)oc3ccccc3c2=O)cc1 readout_kind=EC50 result="7.5 µM (active)"
smiles_text=CCOC(=O)C1(CCOc2ccccc2)CCN(Cc2ccc(NC(C)=O)cc2)CC1 readout_kind=EC50 result="0.211 µM (active)"
smiles_text=CCn1c(N)[n+](CC(=O)Nc2ccc(SC(F)F)cc2)c2ccccc21 readout_kind=EC50 result="4.22 µM (active)"
smiles_text=CCCCC(=O)NNC(=S)NC(=O)c1ccc(C)cc1 readout_kind=EC50 result="2.99 µM (active)"

====

- protocol: cytotoxicity toward NIH3T3 fibroblasts, dose response, counter-screen, cell-based, ATP luminescence, mouse fibroblasts (AID 2010);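 also: cells exposed to compound for about 90 hours before reading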
- Assay type: functional
Calls of active or inactive are those of the source.
readout.kind: EC50

compound=CCN1CCN(CCNC(=O)c2ccc(/C=C3/Sc4ccccc4N(Cc4cccc(Cl)c4)C3=O)cc2)CC1 result="8.47 µM (active)"
compound=Cc1cc(NC(=O)c2cc([N+](=O)[O-])cc([N+](=O)[O-])c2)no1 result="> 60 µM (not active)"
compound=COc1cccc(-c2nc(N3CCN(C)CC3)c3ccccc3n2)c1O result="> 60 µM (not active)"
compound="CCOc1ccc(C2Nc3ccc4ccccc4c3-c3c2c(=O)oc2ccccc32)cc1 (stereo not given)" result="> 60 µM (not active)"
compound=CCOC(=O)c1cnc(-n2nc(C)cc2C)nc1NCc1ccc2c(c1)OCO2 result="> 60 µM (not active)"

====

- system.name: Corticotropin-releasing factor receptor 2/Corticotropin-releasing factor-binding protein (Homo sapiens, UniProt P24387+Q13324)
- Sequence (Q13324 whole entry): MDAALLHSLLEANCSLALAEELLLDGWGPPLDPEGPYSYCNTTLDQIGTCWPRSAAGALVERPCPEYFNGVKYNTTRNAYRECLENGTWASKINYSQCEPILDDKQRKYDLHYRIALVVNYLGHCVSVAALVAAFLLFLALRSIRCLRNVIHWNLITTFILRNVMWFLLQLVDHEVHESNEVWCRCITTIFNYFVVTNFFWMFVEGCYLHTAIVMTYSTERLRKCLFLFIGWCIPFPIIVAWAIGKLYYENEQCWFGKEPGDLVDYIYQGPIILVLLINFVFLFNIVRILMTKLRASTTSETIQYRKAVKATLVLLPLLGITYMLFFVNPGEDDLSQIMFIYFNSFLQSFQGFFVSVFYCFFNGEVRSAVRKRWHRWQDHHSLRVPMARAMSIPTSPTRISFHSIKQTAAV
- Sequence (P24387 whole entry): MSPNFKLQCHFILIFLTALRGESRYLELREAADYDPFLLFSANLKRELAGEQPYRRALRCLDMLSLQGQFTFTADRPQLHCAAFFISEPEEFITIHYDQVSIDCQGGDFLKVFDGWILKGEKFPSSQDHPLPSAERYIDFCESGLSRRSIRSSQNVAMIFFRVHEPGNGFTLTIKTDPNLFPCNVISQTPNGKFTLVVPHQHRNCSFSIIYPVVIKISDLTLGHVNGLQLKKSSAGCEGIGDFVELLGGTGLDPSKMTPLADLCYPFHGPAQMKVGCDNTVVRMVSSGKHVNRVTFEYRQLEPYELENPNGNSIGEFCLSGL
- protocol: Dose Response confirmation of uHTS hits for small molecule antagonists of the CRF-binding protein and CRF-R2 receptor complex.
- Format: functional
- test.parameters: read-out: IC50_Mean
The source made the active and inactive calls.
Classes used: TRUE = active, FALSE = inactive

molecule="COc1ccc(NC(=O)NC(C)c2ccc3c(c2)OCO3)c(OC)c1 (stereo not drawn)" assigned_category=TRUE
molecule=O=C(Cc1cccs1)Nc1nc2c(ccc3ccccc32)s1 assigned_category=FALSE
molecule=CN(C)c1ncc(S(=O)(=O)c2ccc(Cl)cc2)c(-c2ccc(Cl)cc2Cl)n1 assigned_category=FALSE
molecule="Cc1ccc(C(=O)OCC(=O)c2cc(C)n(CC3CCCO3)c2C)cc1 (stereo not drawn)" assigned_category=FALSE
molecule=CCCCn1c(N)c(N(CCC(C)C)C(=O)Cc2ccc(S(=O)(=O)N3CCOCC3)s2)c(=O)[nH]c1=O assigned_category=FALSE
molecule="CCOc1ccccc1/N=C1\\SC(CC(=O)Nc2ccc(OC)cc2OC)C(=O)N1CCC1=CCCCC1 (stereo not drawn)" assigned_category=TRUE
molecule=C[C@H]1CN([C@@H](C)CO)C(=O)Cc2cc(NS(C)(=O)=O)ccc2O[C@@H]1CN(C)Cc1ccc(Cl)c(Cl)c1 assigned_category=FALSE
molecule=CCN1C(=O)/C(=C\C=C\c2ccccc2[N+](=O)[O-])SC1=S assigned_category=FALSE
molecule=Cc1ccc(C(=O)N/C(=C\c2cn(C)c3ccccc23)C(=O)NCCCN2CCOCC2)cc1 assigned_category=FALSE
molecule=CCOc1ccc(S(=O)(=O)N2CCN(C(=O)c3ccncc3)CC2)cc1 assigned_category=FALSE
molecule=CC[C@@H]1CCCCc2ccccc2[C@H](C(=O)C[C@H](O)CC(C)=O)OC1=O assigned_category=FALSE
molecule=Oc1cc(C(F)(F)F)nc2ccc(OC(F)(F)F)cc12 assigned_category=TRUE
molecule=Cc1nnc(SCC(=O)N(C)Cc2ccccc2)nc1O assigned_category=FALSE
